AUC(0-inf) reference
protocol.notes: Pharmacokinetic DDI study in rats, intravenous Y101 and/or ETV
Assay type: in vivo, Sprague–Dawley (SD) rats
conditions: Sprague-Dawley, rat, i.v. Y101 25 mg/kg alone, plasma, n = 4
Record the value in ng·h/mL, omitting the unit from your answer.

Guide cases for AUC(0-inf), answers given:
CN(C)CCOc1ccc(C[C@H](NC(=O)c2ccccc2)C(=O)N[C@H](CO)Cc2ccccc2)cc1.Cl
2370
CN(C)CCOc1ccc(CC(NC(=O)c2ccccc2)C(=O)O)cc1 (stereo not drawn)
5860

We next turn to a different molecule, shown below.
I am curious: what AUC(0-inf) value has been reported for C[N+](C)([O-])CCOc1ccc(CC(NC(=O)c2ccccc2)C(=O)O)cc1 (stereo not drawn) ?
553

---

protocol.notes: Pharmacokinetic DDI study in rats, oral Y101 and/or ETV
Type: in vivo, Sprague–Dawley (SD) rats
conditions: Sprague-Dawley, rat, oral Y101 60 mg/kg alone, plasma, n = 4
reported.endpoint: AUC(0-inf) (ng·h/mL)
Give the value in ng·h/mL but do not write ng·h/mL after it.

Example entries and their recorded answers appear below.
C[N+](C)([O-])CCOc1ccc(CC(NC(=O)c2ccccc2)C(=O)O)cc1 (stereo not drawn) [M9]
645
CN(C)CCOc1ccc(C[C@H](NC(=O)c2ccccc2)C(=O)N[C@H](CO)Cc2ccccc2)cc1.Cl [Y101]
1620

Now look at this entry.
Quick check: AUC(0-inf) of CN(C)CCOc1ccc(CC(NC(=O)c2ccccc2)C(=O)O)cc1 (stereo not drawn) [M8] ?
10200

Cited source: paper PMC9967645
